target: Complement C1q (C1qA/C1qB/C1qC) (UniProt P02745;P02746;P02747 P02745:23-245,P02746:28-253,P02747:29-245); test: ELONA; estimated; C1q fixed at 0.625 nM; settings: chain copies: 6; label: radiolabel (filter); biotin (pulldown, ELONA)
Sequence (P02745 23-245, chain 1 of 3): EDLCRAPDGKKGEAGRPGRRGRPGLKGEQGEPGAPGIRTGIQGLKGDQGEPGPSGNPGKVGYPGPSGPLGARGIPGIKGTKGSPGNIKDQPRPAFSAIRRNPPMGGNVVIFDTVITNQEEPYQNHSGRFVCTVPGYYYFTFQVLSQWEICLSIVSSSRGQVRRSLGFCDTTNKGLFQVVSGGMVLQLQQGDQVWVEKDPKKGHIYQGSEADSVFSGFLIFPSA
Sequence (P02746 28-253, chain 2 of 3): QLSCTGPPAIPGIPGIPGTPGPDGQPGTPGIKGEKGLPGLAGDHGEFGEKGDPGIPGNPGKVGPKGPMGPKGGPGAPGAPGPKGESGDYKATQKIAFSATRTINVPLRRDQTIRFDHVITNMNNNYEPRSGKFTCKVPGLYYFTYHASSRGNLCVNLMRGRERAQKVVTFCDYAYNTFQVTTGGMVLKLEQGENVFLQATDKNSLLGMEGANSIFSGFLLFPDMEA
Sequence (P02747 29-245, chain 3 of 3): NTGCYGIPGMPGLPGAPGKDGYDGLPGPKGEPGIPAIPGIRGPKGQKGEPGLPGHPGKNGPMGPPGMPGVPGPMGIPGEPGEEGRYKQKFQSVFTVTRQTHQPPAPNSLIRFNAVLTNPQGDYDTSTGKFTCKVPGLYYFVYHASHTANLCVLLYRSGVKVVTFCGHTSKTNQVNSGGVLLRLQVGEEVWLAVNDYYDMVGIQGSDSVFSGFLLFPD
pKd: −log10 of the molar value.
Reported metric: pKd

Return the recorded pKd value; entry: 83S-B11 full (ssDNA) DNA: CTAGCATGACTGCAGTACGTAACCCAATTCACATACACTCTCACCCCCACTAAACACTGTCTCTTATACACATCTGACGCTGCCGACGA
~7.40
